Test system: HeLa
assay overview: Cytotoxicity against human HeLa cells assessed as reduction in cell viability after 24 hrs by MTT assay
Assay type: functional, cell-based
pIC50: −log10 of the molar value.
endpoint name: pIC50

// known answers, use as guide
CC(C)=CC[C@@H](O)C1=CC(=O)c2c(O)ccc(O)c2C1=O | 4.98 to 5.19
COc1cccc2c1C(=O)c1c(O)c3c(c(O)c1C2=O)C[C@@](O)(C(=O)CO)C[C@@H]3O[C@H]1C[C@H](N)[C@H](O)[C@H](C)O1 | 5.29 to 5.40

Attention now turns to another entry.
Bench note: what pIC50 did "CC(C)=CC[C@@H](OCc1ccc(C(=O)/N=C/c2c(Cl)c3ccccc3oc2=O)cc1)C1=CC(=O)c2c(O)ccc(O)c2C1=O" show?
4.98 to 5.49
